Attribution: ChEMBL document CHEMBL1201862

- Test target: Cytochrome P450 2C19 (Homo sapiens)
- Sequence (P33261 whole entry): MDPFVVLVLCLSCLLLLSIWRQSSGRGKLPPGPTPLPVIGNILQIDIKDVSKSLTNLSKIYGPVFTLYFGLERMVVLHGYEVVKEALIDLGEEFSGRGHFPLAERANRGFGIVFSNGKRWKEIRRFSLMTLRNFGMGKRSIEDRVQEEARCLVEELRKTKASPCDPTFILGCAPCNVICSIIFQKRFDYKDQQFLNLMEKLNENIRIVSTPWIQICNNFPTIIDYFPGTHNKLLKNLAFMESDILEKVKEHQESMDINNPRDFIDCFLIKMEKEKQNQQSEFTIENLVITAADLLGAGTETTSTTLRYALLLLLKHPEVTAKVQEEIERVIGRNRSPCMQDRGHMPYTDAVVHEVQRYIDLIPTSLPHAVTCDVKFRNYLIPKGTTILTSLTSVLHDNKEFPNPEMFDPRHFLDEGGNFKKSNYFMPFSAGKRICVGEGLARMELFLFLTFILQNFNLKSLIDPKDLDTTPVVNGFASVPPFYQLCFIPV
- Test details: Cytochrome panel assay with activity outcomes. Panel member name: p450-cyp2c19 Compounds with AC50 equal or less than 10 uM are considered active
- Format: functional
- Stated conditions: read-out: AC50
# AC50 per entry
Quantity kind: AC50

>>> result("COC(=O)[C@@]1(Cc2ccc(F)cc2)[C@H]2c3cc(C(=O)N4CCCC4)n(CCN4CNCC4=O)c3C[C@H]2CN1C(=O)c1ccccc1")
"39.8 µM (inconclusive)"
>>> result("O=c1[nH]n(-c2cccc(Cl)c2)c2ncccc12")
"39.8 µM (inconclusive)"
>>> result("Cn1c(=O)cc(SCC(=O)NCCCN2CCOCC2)c2ccc(Cl)cc21")
"10 µM (inconclusive)"
>>> result("CCOc1cc(NC(=O)CC(C)C)c(OCC)cc1N=C(S)Nc1cccc(C)c1")
"2.51 µM (inconclusive)"
>>> result("Cc1cc(C)n(-c2nc(SCCN(C)C)c3c4c(sc3n2)CCCC4)n1")
"31.6 µM (inconclusive)"
>>> result("NS(=O)(=O)c1ccc(NS(=O)(=O)c2ccc(NC(=O)c3ccc(-c4ccccc4)cc3)cc2)cc1")
"0.562 µM (inconclusive)"
>>> result("Cc1cc(C(=O)c2cnc(/N=C/N(C)C)s2)cc(C)c1O")
"25.1 µM (inconclusive)"

---

- Test target: Microphthalmia-associated transcription factor (Homo sapiens, UniProt O75030)
- Sequence (O75030 whole entry): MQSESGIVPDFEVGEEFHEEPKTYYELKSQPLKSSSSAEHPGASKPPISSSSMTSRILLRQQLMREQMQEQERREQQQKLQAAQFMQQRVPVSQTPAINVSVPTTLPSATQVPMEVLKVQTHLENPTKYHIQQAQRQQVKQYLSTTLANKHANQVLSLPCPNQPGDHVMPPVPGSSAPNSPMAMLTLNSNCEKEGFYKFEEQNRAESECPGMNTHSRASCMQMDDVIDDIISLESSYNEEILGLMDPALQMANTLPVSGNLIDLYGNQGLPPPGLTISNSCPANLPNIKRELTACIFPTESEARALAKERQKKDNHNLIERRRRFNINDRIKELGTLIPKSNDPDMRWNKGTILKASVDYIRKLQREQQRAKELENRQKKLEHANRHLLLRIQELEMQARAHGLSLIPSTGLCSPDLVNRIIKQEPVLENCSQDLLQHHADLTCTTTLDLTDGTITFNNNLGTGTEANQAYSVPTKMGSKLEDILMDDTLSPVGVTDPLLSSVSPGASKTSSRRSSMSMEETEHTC
- Test details: TRPM1 promoter luciferase signal decrease, dose response, MITF inhibitor project, cell-based, SK-MEL-5, cherry-picked, set 3 (AID 493073);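 note: SK-MEL-5 melanoma cells with luciferase driven by the MITF target TRPM1 promoter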
- Format: functional
The source made the active and inactive calls.
Outcomes: true (active), false (inactive)

>>> assigned_class("O=[N+]([O-])/C=C\\c1ccc(N2CCCC2)c(F)c1")
"true"
>>> assigned_class("Nc1ccc(Oc2cccc(Oc3ccc(N)cc3)c2)cc1")
"true"
>>> assigned_class("Cc1cc(Sc2ncnc(N)c2[N+](=O)[O-])ncn1")
"true"
>>> assigned_class("Cc1cc2oc(=O)cc(C)c2cc1NC(=O)CCC(=O)O")
"false"
>>> assigned_class("CC(=O)SC(C[N+](=O)[O-])c1cn(C(C)=O)c2ccccc12 (stereo unspecified)")
"true"
>>> assigned_class("COc1cc(C(=O)Oc2c(CN3CCOCC3)cc(Cl)c3cccnc23)cc(OC)c1OC")
"true"

---

- Test target: Corticotropin-releasing factor receptor 2/Corticotropin-releasing factor-binding protein (Homo sapiens, UniProt P24387+Q13324)
- Sequence (Q13324 whole entry): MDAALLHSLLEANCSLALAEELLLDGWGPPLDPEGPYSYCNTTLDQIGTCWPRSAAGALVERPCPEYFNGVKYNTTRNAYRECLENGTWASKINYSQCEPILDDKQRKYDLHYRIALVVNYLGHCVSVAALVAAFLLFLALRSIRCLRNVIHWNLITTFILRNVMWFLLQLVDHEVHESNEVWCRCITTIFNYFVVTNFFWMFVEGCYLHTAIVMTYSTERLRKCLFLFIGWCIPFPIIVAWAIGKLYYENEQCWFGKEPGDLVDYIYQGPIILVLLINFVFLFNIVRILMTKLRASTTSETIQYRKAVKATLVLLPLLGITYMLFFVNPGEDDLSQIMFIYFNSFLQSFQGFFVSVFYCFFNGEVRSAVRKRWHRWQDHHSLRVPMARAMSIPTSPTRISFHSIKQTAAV
- Sequence (P24387 whole entry): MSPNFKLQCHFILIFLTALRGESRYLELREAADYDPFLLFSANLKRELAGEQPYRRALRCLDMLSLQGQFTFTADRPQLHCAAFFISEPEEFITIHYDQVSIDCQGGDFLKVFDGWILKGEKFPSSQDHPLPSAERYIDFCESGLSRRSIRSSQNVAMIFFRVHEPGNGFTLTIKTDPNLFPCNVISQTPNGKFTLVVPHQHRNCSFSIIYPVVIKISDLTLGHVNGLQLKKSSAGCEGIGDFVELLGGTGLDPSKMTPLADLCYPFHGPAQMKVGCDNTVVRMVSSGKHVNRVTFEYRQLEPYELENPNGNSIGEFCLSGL
- Test details: Dose Response confirmation of uHTS hits for small molecule antagonists of the CRF-binding protein and CRF-R2 receptor complex.
- Assay type: functional
- Stated conditions: read-out: IC50_Mean
The source made the active and inactive calls.
Outcomes: TRUE (active), FALSE (inactive)

>>> assigned_class("CCOC(=O)c1sc(NC(=O)CN(CC(C)C)CC(C)C)c(C(=O)OCC)c1C")
"FALSE"
>>> assigned_class("CC1CC(C)CN(C(=O)CSc2nc(Cc3cccs3)nc3ccccc23)C1 (stereo not given)")
"TRUE"
>>> assigned_class("CCOC(=O)Oc1ccc2c(=O)c(Oc3cccc(C)c3)coc2c1")
"TRUE"
>>> assigned_class("CCCCc1ccc(NC(=S)Nc2cccnc2)cc1")
"FALSE"
>>> assigned_class("CC(=O)N1CCOc2cc(S(=O)(=O)N3CCN(c4ccccc4)CC3)c(Cl)cc21")
"FALSE"

---

- Test target: Cytochrome P450 1A2 (Homo sapiens, UniProt P05177);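 note: PubChem cytochrome P450 panel assay, CYP1A2 panel member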
- Sequence (P05177 whole entry): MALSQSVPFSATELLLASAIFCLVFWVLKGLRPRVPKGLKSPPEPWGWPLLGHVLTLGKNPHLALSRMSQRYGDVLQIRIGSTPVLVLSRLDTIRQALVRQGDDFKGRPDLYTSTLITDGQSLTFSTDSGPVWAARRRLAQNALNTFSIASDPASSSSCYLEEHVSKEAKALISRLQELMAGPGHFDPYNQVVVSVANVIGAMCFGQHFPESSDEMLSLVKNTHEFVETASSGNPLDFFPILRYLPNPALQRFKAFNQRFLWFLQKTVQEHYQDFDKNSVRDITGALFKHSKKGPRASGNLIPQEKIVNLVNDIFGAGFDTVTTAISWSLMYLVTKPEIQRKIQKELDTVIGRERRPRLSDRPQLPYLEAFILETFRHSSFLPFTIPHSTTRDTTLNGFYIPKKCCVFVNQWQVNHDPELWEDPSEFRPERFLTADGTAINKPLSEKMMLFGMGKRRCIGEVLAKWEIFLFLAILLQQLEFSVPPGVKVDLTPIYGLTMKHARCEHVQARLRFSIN
Quantity kind: AC50

>>> result("O=C(Cn1cnc2c(oc3ccccc32)c1=O)NCc1ccco1")
"14.1 µM (inconclusive)"
>>> result("Cc1nc2cnc(N3CCN(C)CC3)nc2n(CCC#N)c1=O")
"12.6 µM (inconclusive)"
>>> result("O=C(c1cnccn1)N1CCC2(CCN(Cc3ccncc3)CC2)CC1")
"25.1 µM (inconclusive)"
>>> result("CN(C)c1ncc2nc(-c3cc(F)cc(F)c3)c(=O)n(Cc3cccs3)c2n1")
"1.58 µM (inconclusive)"
>>> result("Cc1ccc(OCC(=O)NNC(=O)c2cc3ccccc3o2)cc1C")
"2.51 µM (inconclusive)"
>>> result("Cc1cnc(CNc2ncnc3ccc(-c4ccc(C(=O)N(C)C)cc4)cc23)cn1")
"15.8 µM (inconclusive)"
>>> result("C[C@@]12CC[C@@H]3c4ccc(O)cc4C[C@H](CCCCCCCCC[S+]([O-])CCCC(F)(F)C(F)(F)F)[C@H]3[C@@H]1CC[C@@H]2O (some centres not stated)")
"31.6 µM (inconclusive)"
>>> result("NC(=O)[C@@H]1CCCN1Cc1ccc2c(c1)OCO2")
"3.16 µM (inconclusive)"
>>> result("COC(=O)CNC(=O)CN1C(=O)N(c2ccc(Cl)cc2)C(N(O)C(=O)Nc2ccc(Cl)cc2)C1(C)C (configuration not stated)")
"22.4 µM (inconclusive)"
>>> result("COC(=O)c1c(-n2c(C)cc(C=O)c2C)sc2c1CCCC2")
"5.01 µM (inconclusive)"
>>> result("CCC(C)(C(=O)NC1CCCC1)N(C(=O)c1ccccn1)c1ccccc1 (configuration not stated)")
"10 µM (inconclusive)"
>>> result("CN(C)CCCNc1c2c(nc3ccc(Cl)cc13)CCCC2")
"3.16 µM (inconclusive)"

---

Target or system Cytochrome P450 2C9 (Homo sapiens): recorded AC50 listed per item.
Quantity kind: AC50

>>> result("O=c1cnc2cnc(Nc3ccccc3)nc2n1Cc1cccs1")
"3.16 µM (inconclusive)"
>>> result("CCn1c(=O)c2c(nc3n2CCS3)n(C)c1=O")
"0.00891 µM (inconclusive)"
>>> result("Nc1nonc1-c1nc2ccccc2n1Cc1ccc(F)cc1Cl")
"3.55 µM (inconclusive)"
>>> result("Cc1ccc(-c2nnc(-c3ccccc3S(=O)(=O)Cc3ccc(Cl)cc3)o2)cc1")
"1.78 µM (inconclusive)"
>>> result("[O-][S+](Cc1cc(Oc2ccccc2)nc(-c2ccccc2)n1)c1ccccc1 (centres undefined)")
"3.98 µM (inconclusive)"
>>> result("CCOC(=O)N1CCN(S(=O)(=O)c2ccc3ncc(C(=O)O)c(O)c3c2)CC1")
"15.8 µM (inconclusive)"
>>> result("O=c1[nH]c2cc3c(cc2cc1CN(CCCO)Cc1nnnn1Cc1ccc(F)cc1)OCO3")
"11.2 µM (inconclusive)"
>>> result("COc1ccc2c(Cl)cc(NC(=S)Nc3ccccc3)nc2c1")
"3.98 µM (inconclusive)"
>>> result("Cc1ccc(C(=O)Nc2cccc(-c3cnc4ccccc4n3)c2)cc1")
"1 µM (inconclusive)"

---

Target or system UniProt:P10635: recorded AC50 listed per item.
Sequence (P10635 whole entry): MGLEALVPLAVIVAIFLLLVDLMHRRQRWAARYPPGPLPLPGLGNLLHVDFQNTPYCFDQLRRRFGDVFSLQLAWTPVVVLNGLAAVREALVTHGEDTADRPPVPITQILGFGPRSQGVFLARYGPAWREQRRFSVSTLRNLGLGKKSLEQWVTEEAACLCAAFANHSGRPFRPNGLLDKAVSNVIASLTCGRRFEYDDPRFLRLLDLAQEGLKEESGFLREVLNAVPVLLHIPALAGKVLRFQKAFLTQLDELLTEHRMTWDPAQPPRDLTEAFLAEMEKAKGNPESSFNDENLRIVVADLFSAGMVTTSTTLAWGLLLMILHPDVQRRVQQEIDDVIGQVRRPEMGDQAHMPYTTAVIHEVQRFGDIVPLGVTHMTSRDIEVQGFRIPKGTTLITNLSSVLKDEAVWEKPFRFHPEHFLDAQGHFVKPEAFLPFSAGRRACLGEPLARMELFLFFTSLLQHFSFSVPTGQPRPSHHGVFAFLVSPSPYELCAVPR
Quantity kind: AC50

>>> result("c1ccc2c(c1)ncn2-c1ccc(-c2ccnc(-c3ccncc3)n2)cc1")
"1.12 µM (inconclusive)"
>>> result("CC1CC/C(=C\\c2ccc3c(c2)OCO3)C(=O)/C1=C/c1ccc2c(c1)OCO2 (centres undefined)")
"2.51 µM (inconclusive)"
>>> result("CCNc1ncc2nc(-c3ccc(Cl)cc3)c(=O)n(C)c2n1")
"25.1 µM (inconclusive)"
>>> result("Cc1cc(C(=O)c2cnc(/N=C/N(C)C)s2)cc(C)c1O")
"25.1 µM (inconclusive)"
>>> result("Cc1nc(NCc2ccco2)c2c3c(sc2n1)CCC3")
"25.1 µM (inconclusive)"
>>> result("COC(=O)C/C=C\\[C@@H](C)[C@@H](/C=N\\O[C@@H]1O[C@H](COC(C)=O)[C@H](OC(C)=O)[C@H](OC(C)=O)[C@H]1OC(C)=O)OC")
"3.98 µM (inconclusive)"
>>> result("CCN(CC)c1nc2ccccc2[nH]1.Cl")
"25.1 µM (inconclusive)"
>>> result("Cc1cccc(-c2nsc(SCC(=O)Nc3nccs3)n2)c1")
"8.91 µM (inconclusive)"
>>> result("Cc1ccc(C)c(C(=O)CN2C(=O)c3ccccc3S2(=O)=O)c1")
"0.631 µM (inconclusive)"
>>> result("COC(=O)[C@@]1(Cc2ccc(F)cc2)[C@H]2c3cc(C(=O)N4CCCC4)n(CCN4CNCC4=O)c3C[C@H]2CN1C(=O)c1ccccc1")
"39.8 µM (inconclusive)"
>>> result("CCNc1ncc2nc(C)c(=O)n(C[C@H]3CCCO3)c2n1")
"39.8 µM (inconclusive)"
>>> result("NC(=O)[C@@H]1CCCN1Cc1ccc2c(c1)OCO2")
"3.98 µM (inconclusive)"
>>> result("COC(=O)[C@@]1(Cc2ccc(F)cc2)[C@H]2c3cc(C(=O)N(C)C)n(CCO)c3C[C@H]2CN1C(=O)c1ccccc1")
"25.1 µM (inconclusive)"
>>> result("Cc1nc(NC(=O)c2ccccc2)sc1-c1csc(Nc2ccc(Cl)cc2Cl)n1")
"12.6 µM (inconclusive)"
